target_system: hT2R54 (Homo sapiens, UniProt P59534)
Construct: expressed in transfected cells; it overexpresses a promiscuous G protein
test: Cell-based assay for measuring hT2R54 inhibition (FLIPR calcium, Fluo4AM, acetaminophen as bitter agonist)
particulars: Table 8; read-out: hT2R54 IC50
pIC50: −log10 of the molar value.
assay_endpoint: pIC50

[1] CC(=O)c1cc2c(cc1NC(=O)C[C@@H]1CCCN(C(=O)CC(C)C)C1)OCO2
[2] CC(=O)c1cc2c(cc1NC(=O)CC1CCCN(S(=O)(=O)c3ccco3)C1)OCO2 (stereo not shown)
[3] CC(=O)c1cc2c(cc1NC(=O)CC1CCN(C(=O)CC3CCCO3)CC1)OCO2 (stereo not shown)
Could you put the items above in increasing order of their pIC50? Respond with an ordered listing of the labels, as requested.
3, 2, 1
(3: 6.52, 2: 6.89, 1: 7.60)

###

target_system: hT2R54 (Homo sapiens, UniProt P59534)
Construct: expressed in transfected cells; it overexpresses a promiscuous G protein
test: Cell-based assay for measuring hT2R54 inhibition (FLIPR calcium, Fluo4AM, acetaminophen as bitter agonist)
particulars: Table 2; cells stably expressing hT2R54 and a promiscuous G protein; read-out: hT2R54 IC50
assay_endpoint: IC50 (nM)

Check out these entries, answers already filled in.
| compound | IC50 (nM) |
| --- | --- |
| COCCC(=O)N1CCN(CC(=O)Nc2cc3c(cc2C(=O)OC)OCO3)CC1 [compound 312] | 157 |
| COCc1ccc(C(=O)N2CCN(CC(=O)Nc3cc4c(cc3OC)OCO4)CC2)s1 [compound 357] | 208 |
| CC(=O)c1cc2c(cc1NC(=O)CN1CCN(C(=O)Oc3ccccc3)CC1)OCO2 [compound 31] | 262 |
| COCc1nc(C(=O)N2CCN(CC(=O)Nc3cc4c(cc3C(C)=O)OCO4)CC2)co1 [compound 296] | 53 |
| COCc1cccc(C(=O)N2CCN(CC(=O)Nc3cc4c(cc3OC)OCO4)CC2)c1 [compound 356] | 156 |
| COc1cccc(CC(=O)N2CCN(CC(=O)Nc3cc4c(cc3OC)OCO4)CC2)c1 [compound 374] | 300 |
| CC(=O)c1cc2c(cc1NC(=O)CN1CCN(C(=O)c3ccc(C)o3)CC1)OCCO2 [compound 333] | 80 |
| CC(=O)c1cc2c(cc1NC(=O)C(C)N1CCN(C(C)=O)CC1)OCCO2 (centres unmarked) [compound 337] | 60 |

[A] CC(=O)c1cc2c(cc1NC(=O)C(C)(C)N1CCN(C(=O)C3CCCO3)CC1)OCO2 (centres unmarked) [compound 319]
[B] COc1cc2c(cc1NC(=O)CN1CCN(C(=O)c3ccc(O)c(O)c3)CC1)OCO2 [compound 381]
[C] CCCOC(=O)N1CCN(CC(=O)Nc2cc3c(cc2OC)OCO3)CC1 [compound 84]
Given 3 compounds, produce a descending ranking by IC50. Returns: the labels arranged in the requested order.
B, A, C
(B: 5000 nM, A: 1000 nM, C: 240 nM)

###

target_system: hT2R54 (Homo sapiens, UniProt P59534)
Construct: expressed in transfected cells; it overexpresses a promiscuous G protein
Sequence (P59534 1-338): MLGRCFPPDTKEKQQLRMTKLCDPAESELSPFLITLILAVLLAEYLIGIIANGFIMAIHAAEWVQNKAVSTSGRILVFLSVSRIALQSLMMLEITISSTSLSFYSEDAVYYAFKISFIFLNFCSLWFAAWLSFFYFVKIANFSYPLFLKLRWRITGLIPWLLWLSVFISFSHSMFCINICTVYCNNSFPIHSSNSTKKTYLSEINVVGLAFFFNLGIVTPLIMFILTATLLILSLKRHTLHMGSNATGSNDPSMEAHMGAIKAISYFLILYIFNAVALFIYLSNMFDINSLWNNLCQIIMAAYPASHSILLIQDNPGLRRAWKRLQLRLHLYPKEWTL
test: Cell-based assay for measuring hT2R54 inhibition (FLIPR calcium, Fluo4AM, acetaminophen as bitter agonist)
particulars: Table 8; read-out: hT2R54 IC50
assay_endpoint: IC50 (nM)

Below are worked cases with known answers.
| molecule | IC50 / nM |
| --- | --- |
| CC(=O)c1cc2c(cc1NC(=O)CC1CCN(C(=O)c3ncc[nH]3)CC1)OCO2 [compound 462] | 30 |
| CC(=O)c1cc2c(cc1NC(=O)CC1CCN(C(=O)c3n[nH]cc3C)CC1)OCO2 [compound 464] | 200 |
| CC(=O)c1cc2c(cc1NC(=O)CC1CCN(C(=O)CC(C)C)C1)OCO2 (stereo not shown) [compound 263] | 374 |
| CCOC(=O)N1CCOC(CC(=O)Nc2cc3c(cc2C(C)=O)OCO3)C1 (stereo not shown) [compound 230] | 160 |
| CCCC(=O)N1CCC(CC(=O)Nc2cc3c(cc2C(C)=O)OCO3)C1 (stereo not shown) [compound 260] | 844 |
| CCS(=O)(=O)N1CCCC(CC(=O)Nc2cc3c(cc2OC)OCO3)C1 (stereo not shown) [compound 515] | 500 |
| CC(=O)c1cc2c(cc1NC(=O)CC1CCCN(C(=O)c3ccccc3)C1)OCO2 (stereo not shown) [compound 216] | 80 |
| CC(=O)c1cc2c(cc1NC(=O)CC1CCN(C(=O)c3ccc(CO)o3)CC1)OCCO2 [compound 487] | 250 |
| CCCS(=O)(=O)N1CCCC(CC(=O)Nc2cc3c(cc2C(C)=O)OCO3)C1 (stereo not shown) [compound 224] | 40 |
| CC(=O)c1cc2c(cc1NC(=O)CC1CCCN(C(=O)c3ncc[nH]3)C1)OCO2 (stereo not shown) [compound 505] | 130 |

[P] CCS(=O)(=O)N1CCCC(CC(=O)Nc2cc3c(cc2C(C)=O)OCO3)C1 (stereo not shown) [compound 223]
[Q] CC(=O)c1cc2c(cc1NC(=O)CC1CCN(C(=O)C3CCCO3)CC1)OCO2 (stereo not shown) [compound 242]
[R] CC(=O)c1cc2c(cc1NC(=O)CC1CCCN(C(=O)c3ccoc3)C1)OCO2 (stereo not shown) [compound 196]
Please list these in order of increasing IC50. Thank you! Answer by writing out the labels in the requested order.
P, Q, R

[I] CC(=O)c1cc2c(cc1NC(=O)CC1CCCN(C(=O)c3ccccc3O)C1)OCO2 (stereo not shown) [compound 217]
[II] CC(=O)c1cc2c(cc1NC(=O)CC1CCN(C(=O)C3CCCCO3)CC1)OCO2 (stereo not shown) [compound 243]
Just tell me: smaller IC50 value, I or II ? Lab log: write the label of the selected item as the result.
II

Taken from patent US12295396B2.
